Target protein (sequence): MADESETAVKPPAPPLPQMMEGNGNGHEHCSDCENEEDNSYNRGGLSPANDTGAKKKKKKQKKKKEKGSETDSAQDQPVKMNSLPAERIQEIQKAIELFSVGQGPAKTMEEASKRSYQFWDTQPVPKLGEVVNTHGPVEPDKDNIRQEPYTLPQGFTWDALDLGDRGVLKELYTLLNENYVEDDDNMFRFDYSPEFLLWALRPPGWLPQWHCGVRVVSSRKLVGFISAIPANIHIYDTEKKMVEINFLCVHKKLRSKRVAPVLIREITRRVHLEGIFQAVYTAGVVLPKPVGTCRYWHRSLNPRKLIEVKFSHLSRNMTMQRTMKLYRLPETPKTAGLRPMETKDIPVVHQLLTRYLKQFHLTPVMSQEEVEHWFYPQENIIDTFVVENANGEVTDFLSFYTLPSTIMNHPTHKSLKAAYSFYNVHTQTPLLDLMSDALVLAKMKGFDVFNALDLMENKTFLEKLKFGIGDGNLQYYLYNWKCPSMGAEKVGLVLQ
pIC50: −log10 of the molar value.
readout-label: pIC50

> print(dat)
                  compound.structure.string  observed.value
1  CCN1CCN(c2ccccc2NC(=O)c2cc(S(=O)(=O)N(CC)c3ccccc3)ccc2Cl)C1=O          < 3.90

Please look at the items below and tell me pIC50 for each one, in order.
1. CCN(c1ccccc1)S(=O)(=O)c1ccc(Cl)c(C(=O)Nc2ccccc2N2CCN(C)C2=O)c1
2. CCN(c1ccccc1)S(=O)(=O)c1ccc(Cl)c(C(=O)Nc2ccccc2N2CCC(C)(C)C2=O)c1
3. CCN(c1ccccc1)S(=O)(=O)c1ccc(Cl)c(C(=O)Nc2ccccc2N2CCN(CC3CC3)C2=O)c1

1. 4.94
2. < 3.90
3. < 3.90

----------
Provide the reported Ratio IC50 of each item.
- assay-summary: Selectivity index, ratio of IC50 for human NMT1 to IC50 for Cryptosporidium parvum NMT

> print(dat)
                  compound.structure.string  readout.label  observed.value
1  CCN(c1ccccc1)S(=O)(=O)c1ccc(Cl)c(C(=O)Nc2ccccc2N2CCN(CC3CC3)C2=O)c1     Ratio IC50             > 2
2  CCN1CCN(c2ccccc2NC(=O)c2cc(S(=O)(=O)N(CC)c3ccccc3)ccc2Cl)C1=O     Ratio IC50            > 44

Let's switch to this compound now.
Return Ratio IC50 (reported value) for this compound: `CCN(c1ccccc1)S(=O)(=O)c1ccc(Cl)c(C(=O)Nc2ccccc2N2CCC(C)(C)C2=O)c1`
> 9
